Please go through the items and note down their % Steigerung der t-PA-Synthese Durchschnitt.
System: CHO-Zellen
Test: t-PA production in transformed CHO cells, medium with 7.5% FKS, supernatant, direct chromogenic assay (DCA)
Format: cell-based, chinesische Hamster
Settings: Table 3; mean ± SE, n = 3-24; production runs of 3 to 4 days, acids added day 0 to 3; 1 ml supernatant vs control (0%); 7,5% FKS

Provide % Steigerung der t-PA-Synthese Durchschnitt value for the following compound: O=CO [Ameisensäure, reference compound]
6,5 ± 0,9%

Provide % Steigerung der t-PA-Synthese Durchschnitt value for the following compound: "CCCC(=O)O"
41,9 ± 3,8%

Provide % Steigerung der t-PA-Synthese Durchschnitt value for the following compound: "CC(C)CC(=O)O"
18,7 ± 2,4%

Provide % Steigerung der t-PA-Synthese Durchschnitt value for the following compound: "CC(C)C(=O)O"
16.6 ± 2,8%

Provide % Steigerung der t-PA-Synthese Durchschnitt value for the following compound: "CCC(=O)O"
28,0 ± 2,5%

###

Please go through the items and note down their optimaler Dosisbereich.
Tested on: CHO-Zellen
Assay: t-PA production in transformed CHO cells, medium with 7.5% FKS, supernatant, direct chromogenic assay (DCA)
Format: cell-based, chinesische Hamster
Conditions: Table 3; stimulation of t-PA synthesis; medium with 7,5% FKS; bracketed value = concentration of the single (maximum) sample

Provide optimaler Dosisbereich value for the following compound: "CCC(=O)O"
5-10 mM (10 mM)

Provide optimaler Dosisbereich value for the following compound: "CCCC(=O)O"
1-5 mM ( 1 mM)

Provide optimaler Dosisbereich value for the following compound: "CC(C)C(=O)O"
0,6-10 mM (10 mM)

Provide optimaler Dosisbereich value for the following compound: "CC(C)CC(=O)O"
1-20 mM ( 5 mM)

###

Test system: CHO-Zellen
Assay: t-PA production in transformed CHO cells, medium with 7.5% FKS, supernatant, direct chromogenic assay (DCA)
Type: cell-based, chinesische Hamster
Conditions: Table 4; Applikationstag 0; after 48 h growth; 7,5% FKS; 1 mM or 5 mM; 1 ml supernatant vs control (0%); mean ± SE
Please go through the items and note down their Steigerung der t-PA-Produktion.

Provide Steigerung der t-PA-Produktion value for the following compound: CC(C)CC(=O)O [Isovaleriansäure]
17,2 ± 1,0%

Provide Steigerung der t-PA-Produktion value for the following compound: CCC(=O)O [Propionsäure]
28,7 ± 9,3%

Provide Steigerung der t-PA-Produktion value for the following compound: CCCC(=O)O [Buttersäure]
33,0 ± 5,4%

Provide Steigerung der t-PA-Produktion value for the following compound: CC(C)C(=O)O [Isobuttersäure]
20,1 ± 10,7%
